- TARGET_UNDER_TEST: Human M4 (Homo sapiens, UniProt P08173)
- Sequence (P08173 1-479): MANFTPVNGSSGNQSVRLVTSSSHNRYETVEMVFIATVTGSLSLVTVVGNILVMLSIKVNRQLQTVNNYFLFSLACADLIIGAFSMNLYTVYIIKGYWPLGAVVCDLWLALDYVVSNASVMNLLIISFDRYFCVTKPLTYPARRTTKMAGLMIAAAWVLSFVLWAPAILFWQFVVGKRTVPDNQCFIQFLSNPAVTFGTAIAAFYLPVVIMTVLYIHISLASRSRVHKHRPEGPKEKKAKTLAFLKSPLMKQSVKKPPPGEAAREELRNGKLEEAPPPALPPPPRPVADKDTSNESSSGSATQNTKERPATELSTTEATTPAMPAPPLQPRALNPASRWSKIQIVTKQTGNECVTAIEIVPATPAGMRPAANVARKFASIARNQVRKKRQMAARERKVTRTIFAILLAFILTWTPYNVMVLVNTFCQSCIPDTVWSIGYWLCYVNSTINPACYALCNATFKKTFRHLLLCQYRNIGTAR
- TEST: cell-based
- RECORDED_CONDITIONS: CHO-K1
PROPERTY_NAME: Emax (%)

Example cases with answers are listed next.
Cc1nc2cc(C)c3c(N)c(C(=O)NCc4ccc(N5CCN(C)CC5)cc4)sc3n2n1 : 86
Cc1nc2cc(C)c3c(N)c(C(=O)N[C@H]4CCN(c5ccc(F)cn5)C4)sc3n2n1 : 66

[A] Cc1nc2cc(C)c3c(N)c(C(=O)NC4CN(c5ncc(C6CC6)cc5C)C4)sc3n2n1
[B] Cc1nc2cc(C)c3c(N)c(C(=O)N[C@@H]4CCN(c5ccc(F)cn5)C4)sc3n2n1
Query: Just tell me: smaller Emax value, A or B ? Lab log: write the label of the selected item as the result.
Response: B
